study target: Mitogen-activated protein kinase kinase kinase 3 (Homo sapiens) (UniProt Q99759)
Sequence (Q99759 whole entry, looked up): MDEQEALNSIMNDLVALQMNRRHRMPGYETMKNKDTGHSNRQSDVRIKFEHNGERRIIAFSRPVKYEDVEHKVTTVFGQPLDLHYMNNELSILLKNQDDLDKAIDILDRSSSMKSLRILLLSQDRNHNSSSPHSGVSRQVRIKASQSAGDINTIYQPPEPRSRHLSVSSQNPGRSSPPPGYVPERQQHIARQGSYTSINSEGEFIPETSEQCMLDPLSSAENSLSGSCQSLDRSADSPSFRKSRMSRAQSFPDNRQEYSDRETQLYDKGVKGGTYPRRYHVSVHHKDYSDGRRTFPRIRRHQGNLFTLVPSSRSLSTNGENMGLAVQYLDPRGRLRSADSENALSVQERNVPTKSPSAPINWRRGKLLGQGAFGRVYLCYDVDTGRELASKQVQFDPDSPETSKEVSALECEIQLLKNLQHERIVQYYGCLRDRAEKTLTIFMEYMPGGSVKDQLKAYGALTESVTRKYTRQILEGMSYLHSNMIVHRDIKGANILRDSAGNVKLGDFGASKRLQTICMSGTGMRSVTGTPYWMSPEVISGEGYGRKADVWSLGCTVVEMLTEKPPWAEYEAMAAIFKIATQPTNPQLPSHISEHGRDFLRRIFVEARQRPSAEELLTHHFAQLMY
test: blockers of MEK5-MEKK3 PB1 association – biochemical, bead multiplex flow cytometry, single concentration, wildtype, confirmation (AID 1894);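 also: 100% = DMSO only wells and 0% = binding blocked by excess unlabeled MEK5; lower values mean stronger disruption of MEK5 binding to MEKK3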
assay conditions: Alexa488-MEK5 binding to MEKK3, at 10 µM, hits give low values
The whole screen tested about 5,900 compounds, of which about 100 (1.7%) were called active. Many of the other results were omitted from the sample, so actives are more common in it than they were.
Attribute: binding response (% of control)
All answers are understood in %, so give the number only.

These recorded examples may help you get a feel for the data.
> print(dat)
                                    molecule  result.number
 1  CCOc1ccc(S(=O)(=O)NCCCn2ccnc2)cc1NC(C)=O             97
 2  Cc1ccc(S(=O)(=O)/N=S(\C)C(C)C)cc1 (stereo unspecified)            101
 3  COc1ccc(N2CCN(Cc3nnc(-c4ccccc4)o3)CC2)cc1             96
 4     O=C(O)/C=C\C(=O)Nc1ccc(OCc2ccccc2)cc1             98
 5  CCOc1cc(C(=O)OCC(=O)Nc2cccc(C)c2)ccc1OCC(=O)N1CCOCC1            106
 6  Cc1ccc(S(=O)(=O)NC(=O)N2CCCC(C)(C)C2)cc1             98
 7  COc1cc(Br)c(-c2sc(Nc3ccccc3)n[n+]2-c2ccccc2)cc1OC            102
 8  C=CCN(CC=C)S(=O)(=O)c1ccc(C(=O)Nc2sc3c(c2C(N)=O)CCCCC3)cc1            100
 9  CCOC(=O)C(NS(=O)(=O)c1ccc(C)cc1)(C(F)(F)F)P(=O)(OCC(C)C)OCC(C)C (stereo unspecified)             94
10  COc1ccc(S(=O)(=O)Nc2ccc3oc(C)c(C(C)=O)c3c2)cc1            100

Given the entry `CCOC(=O)Cc1csc(NC(=O)CSc2nc(C)cc(=O)[nH]2)n1` , what binding response (% of control) was observed with Mitogen-activated protein kinase kinase kinase 3 (Homo sapiens) (UniProt Q99759)? 99

Given the entry CN(C)CC(O)COc1ccc(C(C)(C)c2ccc(OCC(O)CN(C)C)cc2)cc1 (stereo unspecified) , what binding response (% of control) was observed with Mitogen-activated protein kinase kinase kinase 3 (Homo sapiens) (UniProt Q99759)? 111

Given the entry `O=C(NCCCN1CCN(c2ccc(F)cc2)CC1)Nc1ccc([N+](=O)[O-])cc1` , what binding response (% of control) was observed with Mitogen-activated protein kinase kinase kinase 3 (Homo sapiens) (UniProt Q99759)? 107

Given the entry CCCCOC(=O)c1ccc(N2C(=O)CC(N3CCN(C/C=C/c4ccccc4)CC3)C2=O)cc1 (stereo unspecified) , what binding response (% of control) was observed with Mitogen-activated protein kinase kinase kinase 3 (Homo sapiens) (UniProt Q99759)? 104

Given the entry `COc1ccccc1N1CCN(CCCCOc2ccc(F)cc2)CC1` , what binding response (% of control) was observed with Mitogen-activated protein kinase kinase kinase 3 (Homo sapiens) (UniProt Q99759)? 103

----------
study target: Mitogen-activated protein kinase kinase kinase 3 (Homo sapiens)
test: blockers of MEK5-MEKK3 PB1 association – biochemical, bead multiplex flow cytometry, single concentration, wildtype, confirmation (AID 1894);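 also: 100% = DMSO only wells and 0% = binding blocked by excess unlabeled MEK5; lower values mean stronger disruption of MEK5 binding to MEKK3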
assay conditions: Alexa488-MEK5 binding to MEKK3, at 10 µM, hits give low values
Hit rate of the full screen: of about 5,900 compounds, about 100 (1.7%) were called active. Many of the other results were omitted from the sample, so actives are more common in it than they were.
property name: binding response (% of control) (%)
All answers are understood in %, so give the number only.

Which binding response (% of control) value is on record for `Cc1c(CN2CCC(CO)(CCOc3ccccc3)CC2)[nH]c2ccc(Cl)cc12` ? 112

Which binding response (% of control) value is on record for `CCOC(=O)c1c(Cc2ccc(Cl)cc2)c[nH]c1C` ? 107

Which binding response (% of control) value is on record for `c1ccc2c(c1)C(=NC1CCCCC1)NC2=NC1CCCCC1` ? 104

Which binding response (% of control) value is on record for `Cc1cccc(OCCNC(=O)CSc2ccc(C(F)(F)F)cc2[N+](=O)[O-])c1` ? 104

Which binding response (% of control) value is on record for `CN(c1ccccc1)c1ccc(/C=c2\s/c(=C(/C#N)C(=O)C(C)(C)C)n(Cc3ccco3)c2=O)cc1` ? 69
